Entries below carry reported log10 IC50 on human α-thrombin (Homo sapiens, UniProt P00734).
test readout: log10 IC50 (log10 of the value in nM)

{"compound": "CC(C)N(CCc1noc(O)n1)C(=O)c1cc(Cl)cc(OCCNc2ccncc2)c1 [Example 109]", "log10 IC50": 2.15}
{"compound": "Cc1cc(OCCNc2ccncc2)cc(C(=O)N(C)C2CCCCC2)c1 [Example 1]", "log10 IC50": 0.90}
{"compound": "CC(C)N(CCC(N)=O)C(=O)c1cc(Cl)cc(OCCNc2ccncc2)c1 [Example 58]", "log10 IC50": 2.03}
{"compound": "O=C(c1cc(Cl)cc(OCCNc2ccncc2)c1)N(CCCN1CCOCC1)C1CCCC1 [Example 13]", "log10 IC50": 1.18}
{"compound": "O=C(c1cc(Cl)cc(OCCNc2ccncc2)c1)N(CCOCC(O)CO)c1ccccc1 (stereo not shown) [Example 41]", "log10 IC50": 1.45}
{"compound": "O=C(c1cc(Cl)cc(OCCNc2ccncc2)c1)N(CCCCn1cncn1)C1CCCC1 [Example 92]", "log10 IC50": 1.18}
{"compound": "O=C(c1cc(Cl)cc(OCCNc2ccncc2)c1)N(CCCO)C1CCCC1 [Example 9]", "log10 IC50": 0.85}
{"compound": "O=C(O)CCCN(C(=O)c1cc(Cl)cc(OCCNc2ccncc2)c1)C1CCC1 [Example 128]", "log10 IC50": 1.61}
{"compound": "CCCN(C(=O)c1cc(Cl)cc(OCCNc2ccncc2)c1)c1cc(F)cc(F)c1 [Example 29]", "log10 IC50": 1.79}
{"compound": "O=C(c1cc(Cl)cc(OCCNc2ccncc2)c1)N(CCCc1nnn[nH]1)c1ccccc1F [Example 40]", "log10 IC50": 0.95}
{"compound": "O=C(CCN(C(=O)c1cc(Cl)cc(OCCNc2ccncc2)c1)c1ccccc1)N1CCSCC1 [Example 49]", "log10 IC50": 1.58}
{"compound": "CC(C)CN(Cc1ccc(C(=O)O)cc1)C(=O)c1cc(Cl)cc(OCCNc2ccncc2)c1 [Example 118]", "log10 IC50": 1.00}
{"compound": "CC(C)N(CCCNS(C)(=O)=O)C(=O)c1cc(Cl)cc(OCCNc2ccncc2)c1 [Example 72]", "log10 IC50": 1.80}

Source listed as patent US6326386A.
